// reported formation percentage of SN38 per item
assay: In vitro degradation and release of co-prodrugs in PBS pH 7.4 (HPLC); format: physicochemical; conditions: pH 7.4 PBS, 37 °C, 24 h later
observable: formation percentage of SN38 (%)

CCc1c2c(nc3ccc(O)cc13)-c1cc3c(c(=O)n1C2)COC(=O)[C@@]3(CC)OC(=O)CCNC(=O)ONC(=O)CCCCCCC(=O)Nc1ccccc1 [3b]: 3.4
CCc1c2c(nc3ccc(O)cc13)-c1cc3c(c(=O)n1C2)COC(=O)[C@@]3(CC)OC(=O)CNC(=O)ONC(=O)CCCCCCC(=O)Nc1ccccc1 [3a]: 26.3

###

test: In vitro degradation and release of co-prodrugs in human plasma (HPLC); format: in vitro ADME; details: male, 37 °C, read-out: t1/2 of co-prodrug in plasma (converted)
Reported values of half-life at 0.1 μM/L for individual entries
observable: half-life at 0.1 μM/L (h)

CCc1c2c(nc3ccc(O)cc13)-c1cc3c(c(=O)n1C2)COC(=O)[C@@]3(CC)OC(=O)CCCNC(=O)ONC(=O)CCCCCCC(=O)Nc1ccccc1: 5
CCc1c2c(nc3ccc(O)cc13)-c1cc3c(c(=O)n1C2)COC(=O)[C@@]3(CC)OC(=O)CCCCCNC(=O)ONC(=O)CCCCCCC(=O)Nc1ccccc1: 5
CCc1c2c(nc3ccc(O)cc13)-c1cc3c(c(=O)n1C2)COC(=O)[C@@]3(CC)OC(=O)CCNC(=O)ONC(=O)CCCCCCC(=O)Nc1ccccc1: 3
CCc1c2c(nc3ccc(O)cc13)-c1cc3c(c(=O)n1C2)COC(=O)[C@@]3(CC)OC(=O)CNC(=O)ONC(=O)CCCCCCC(=O)Nc1ccccc1: 1

###

assay: In vitro degradation and release of co-prodrugs in PBS pH 7.4 (HPLC); format: physicochemical; conditions: PBS buffer; pH 7.4 PBS, 37 °C; read-out: half-life (t1/2) of co-prodrug in PBS (converted)
observable: half-life at 0.05 μM/L (min)

CCc1c2c(nc3ccc(O)cc13)-c1cc3c(c(=O)n1C2)COC(=O)[C@@]3(CC)OC(=O)CNC(=O)ONC(=O)CCCCCCC(=O)Nc1ccccc1 [3a]: 120
